Value source: PubChem BioAssay (NCI)

Listed below: TGI values for each entry.
Test system: T-47D breast
measurement_notes: NCI tumour cell line growth inhibition, 48 h

                                   molecule  observable     value
0  C[C@]12CC[C@H](OC(=O)Cc3ccc(N(CCCl)CCCl)cc3)CC1=CC[C@@H]1[C@@H]2CC[C@]2(C)C(=O)CC[C@@H]12         TGI  > 100 µM
1  COc1ccc2c(c1)-c1nc(=S)n(CCCN(C)C)c3ccc([N+](=O)[O-])c(c13)N2         TGI   40.8 µM
2          CN(C)c1ccc(/C=C2/NC(=S)NC2=O)cc1         TGI  > 100 µM
3  CCN(CC)CCCC(C)Nc1c2ccc(Cl)cc2nc2ccc(O)cc12 (configuration not stated)         TGI   11.6 µM
4  COC(=O)/C=C(/C=C1/C(C#N)=C(N)N(c2ccc(Cl)cc2)C1(C)/C(=C/C(=O)OC)C(=O)OC)C(=O)OC (configuration not stated)         TGI  > 100 µM

[in] Report TGI for COc1ccc(N2C(=O)/C(=C/c3ccc(N(CCC#N)CCC#N)cc3C)N=C2c2cc([N+](=O)[O-])ccc2Cl)cc1
[out] > 100 µM

[in] Report TGI for Cc1cc2cc3c(cc2c(-c2ccc([N+](=O)[O-])cc2)n1)OCO3
[out] > 100 µM

[in] Report TGI for Cc1nc(-c2cc3c(ccc4ccccc43)oc2=O)cs1
[out] > 100 µM

[in] Report TGI for CC1(C)C2CCC(CN)(C2)C1N (configuration not stated)
[out] > 100 µM

[in] Report TGI for CCN(CCO)C(=O)C1(c2ccccc2)CCCCC1
[out] > 10 µM

[in] Report TGI for Cc1ccc(-c2nc3nc(-c4ccccc4)nc(N4CCCNCC4)c3o2)cc1
[out] 3.5 µM

[in] Report TGI for Cn1c2ccccc2c2ccc3c(c21)C(=O)c1ccccc1C3=O
[out] 49.8 µM

---

Tested on: A549 NSCLC
measurement_notes: NCI tumour cell line growth inhibition, 48 h
observable: TGI

Worked set:
                                   compound  assay_system     value
0  CCOC(=O)c1cc2c([nH]1)c(O)cc1c2ccn1Cc1ccccc1    A549 NSCLC   30.3 µM
1  Nc1c(-c2ccc(Cl)cc2)[n+]([O-])c2ccccc2[n+]1[O-]    A549 NSCLC  > 100 µM
2  O=C(CCc1nnc2sc(-c3ccc(Cl)cc3Cl)nn12)c1nc2ccccc2[nH]1    A549 NSCLC   4.96 µM

[in] Report TGI for Nc1cccnc1NCC1(CO)CCCC1
[out] > 100 µM

[in] Report TGI for Cc1ccc(C(=O)N(CCCN)C(c2oc3cc(Cl)ccc3c(=O)c2Cc2ccccc2)C(C)C)cc1 (centres undefined)
[out] 1.54 µM

[in] Report TGI for Cn1c2ccccc2c2ccc3c(c21)C(=O)c1ccccc1C3=O
[out] > 100 µM

[in] Report TGI for O=C1c2ccccc2C(=O)N1CCc1ncc[nH]1
[out] > 100 µM

[in] Report TGI for COC(=O)c1cc2c(cc1CC1Cc3cc4c(cc3C1=O)CCC4)CCC2 (centres undefined)
[out] > 100 µM

[in] Report TGI for N#CC(C#N)=C1Nc2ccccc2S1
[out] > 100 µM

[in] Report TGI for COCCCNC(=O)C1C(=O)C(=O)N(CCCOC)C1=O (centres undefined)
[out] > 100 µM

[in] Report TGI for Cc1cc2cc3c(cc2c(-c2ccc([N+](=O)[O-])cc2)n1)OCO3
[out] > 100 µM

[in] Report TGI for O=c1[nH]c(=O)n(CCOc2ccccc2)cc1Nc1ccccc1
[out] > 100 µM

[in] Report TGI for COC(=O)C1=C(O)C(C(=O)OC)[C@]2(O)[C@H](C(=O)OC)[C@H]1C[C@@H](c1ccc(OC)c(OC)c1)[C@H]2C(=O)OC (some centres undefined)
[out] 54.4 µM

[in] Report TGI for CCOC(=S)SSSC(=S)OCC
[out] > 100 µM

---

System: CCRF-CEM leukemia
measurement_notes: NCI tumour cell line growth inhibition, 48 h
Listed below: TGI values for each entry.

>>> df
                                   molecule     value
0  NCCCCC(NC(=O)C(N)Cc1ccc(O)cn1)C(=O)O (stereo unspecified)  > 100 µM

[in] Give CCRF-CEM leukemia TGI for the following molecule: Nc1c(-c2ccc(Cl)cc2)[n+]([O-])c2ccccc2[n+]1[O-]
[out] > 100 µM

[in] Give CCRF-CEM leukemia TGI for the following molecule: NC12CC3CC(C1)CC(C(=O)O)(C3)C2
[out] > 100 µM

[in] Give CCRF-CEM leukemia TGI for the following molecule: Cc1ccc2c(c1)Sc1c(ccc3ccccc13)N2
[out] > 100 µM

[in] Give CCRF-CEM leukemia TGI for the following molecule: COc1nc(N=P(c2ccccc2)(c2ccccc2)c2ccccc2)cc(=O)[nH]1
[out] > 100 µM

[in] Give CCRF-CEM leukemia TGI for the following molecule: CCCCC(=O)c1ccc2ccccc2c1O
[out] > 100 µM

[in] Give CCRF-CEM leukemia TGI for the following molecule: CCOC(=O)c1oc2cc3c(c4c2c1-c1ccccc1N4C)C=CC(C)(C)O3
[out] > 100 µM

[in] Give CCRF-CEM leukemia TGI for the following molecule: N#CC1C(=O)N(c2ccccc2)NC12OC(=O)c1ccncc12 (stereo unspecified)
[out] > 20 µM

[in] Give CCRF-CEM leukemia TGI for the following molecule: CCOC(=S)SSSC(=S)OCC
[out] > 100 µM

[in] Give CCRF-CEM leukemia TGI for the following molecule: Cc1ccc(-c2nc3nc(-c4ccccc4)nc(N4CCCNCC4)c3o2)cc1
[out] 4.23 µM

[in] Give CCRF-CEM leukemia TGI for the following molecule: O=c1cc(N2CCNCC2)nc2ccccn12
[out] > 100 µM

[in] Give CCRF-CEM leukemia TGI for the following molecule: C#CCNC(=O)c1cccc2c1cc(C)n2-c1nc2c(c(NCc3ccccc3)n1)CCCC2
[out] 0.945 µM

[in] Give CCRF-CEM leukemia TGI for the following molecule: CS(=O)(=O)c1ccc(-n2nc(C(F)(F)F)cc2OC2CCCC2)cc1
[out] > 100 µM

[in] Give CCRF-CEM leukemia TGI for the following molecule: Cc1ccc(NC(=O)CC(=O)n2nc(C)c(N=Nc3ccccc3C(=O)O)c2C)cc1
[out] > 100 µM

[in] Give CCRF-CEM leukemia TGI for the following molecule: COc1ccc(/C=C2\CCC(C)C3C2=NN(c2ccccc2)C3c2ccc(OC)c(OC)c2)cc1OC (stereo unspecified)
[out] 10.2 µM

[in] Give CCRF-CEM leukemia TGI for the following molecule: C[C@@H]1OC(=O)N2CCCC(=C3SCCCS3)C12 (stereo partly specified)
[out] > 100 µM

---

Tested on: SN12C renal
measurement_notes: NCI tumour cell line growth inhibition, 48 h
observable: GI50

>>> print(df.to_string())
                                smiles_code    value
0  CCCCCCCC[C@@H](O)CC(=O)N[C@@H](CC(N)=O)C(=O)N[C@@H](CCC(N)=O)C(=O)N[C@@H](CC(=O)c1cc(C)cc(O)c1C(=O)c1c(O)cccc1O)CC(C)C  2130 nM
1  C=C(C[C@](O)(C(=O)/C=C/c1ccc(Cl)cc1)C(=O)OC)c1ccccc1  2410 nM

[in] Give SN12C renal GI50 for the following compound: O=C1Nc2ccccc2C1(c1ccc(O)cc1)c1ccc(O)cc1
[out] 312 nM

---

System: SF-539 CNS
measurement_notes: NCI tumour cell line growth inhibition, 48 h
observable: GI50

Worked set:
                                smiles_code    value
0                   N#CC(C#N)=C1Nc2ccccc2S1  36.3 µM
1  O=C(O)/C=C(\c1nc2ccc([N+](=O)[O-])cc2[nH]1)c1cc(Cl)ccc1O   3.1 µM

Query compound follows.
[in] Report GI50 for Nc1nc(N(Cc2ccccc2)c2ccccc2)c2cn[nH]c2n1
[out] 2.95 µM

---

Test system: CCRF-CEM leukemia
measurement_notes: NCI tumour cell line growth inhibition, 48 h
Listed below: TGI values for each entry.

Worked set:
>>> df
                                smiles_code       assay_system     value
0  CN(C)/N=C(/CC(O)(C(F)(F)F)C(F)(F)F)c1ccc([N+](=O)[O-])cc1  CCRF-CEM leukemia  > 100 µM
1  CC(=O)N(C(C)=O)n1c(Cc2ccc(Cl)cc2)n[nH]c1=O  CCRF-CEM leukemia  > 100 µM

Query compound follows.
[in] Report TGI for OCCCNc1nc(=S)[nH]c2[nH]ncc12
[out] > 100 µM
